Counter-ions that a name gives are not always drawn.
assay_readout: melting point

I would be grateful if you could share the reported melting point for CCCN1C(=O)N2C[C@@H](Cc3ccccc3)N=C2c2c1ncn2Cc1ccccc1.Cl .
198 to 200 °C

Check CCCN1C(=O)N2C[C@H](C(C)(C)C)N=C2c2[nH]c(C3CCCC3)nc21.Cl [Compound 12] too.
184 to 186 °C

Next up: CCCN1C(=O)N2CC(Cc3ccc(Br)cc3)N=C2c2[nH]c(C3CCCC3)nc21 (centres unmarked) (as salt: hydrochloride) [Compound 23]
184 to 186 °C

Then CCCN1C(=O)N2CC(CCc3ccccc3)N=C2c2[nH]c(C3CCCC3)nc21 (centres unmarked) (as salt: hydrochloride) [Compound 31] ?
171 to 173 °C
